Cited source: patent US12448433B2

Molecular target: DPB1*02:01
Assay: Peptide binding to HLA-DP allele, competition assay
ENDPOINT NAME: pIC50
Just the number, please; pIC50 means minus log10 of the concentration in mol/L.

Input CC[C@H](C)[C@H](NC(=O)[C@H](CC(C)C)NC(=O)[C@H](CC(N)=O)NC(=O)[C@@H](NC(=O)[C@@H](NC(=O)[C@H](Cc1ccccc1)NC(=O)[C@H](Cc1c[nH]cn1)NC(=O)[C@H](CCCCN)NC(=O)[C@@H](NC(=O)[C@@H](N)Cc1c[nH]cn1)C(C)C)C(C)C)[C@@H](C)CC)C(=O)NCC(=O)N[C@@H](CC(=O)O)C(=O)N[C@@H](Cc1ccccc1)C(=O)N[C@@H](CCC(=O)O)C(=O)N[C@H](C(=O)O)C(C)C [Peptide 3563.0014] , output reported pIC50. 7.24

###

Molecular target: DPB1*05:01
Assay: Peptide binding to HLA-DP allele, competition assay
Description: Peptide binding to MHC-II requires anchor residues in certain positions and thus can be predicted using computer algorithms. Affinity can be measured experimentally using a competition assay (1). Both are excellent screening tools. However, affinity must be measured separately for each MHC-II allele. Humans express molecules encoded in four different MHC-II loci, denominated HLA-DRB1, DRB3/4/5, DP and DQ. […]
Provide the reported IC50 of each item.
Reply numerically in µM, unit not repeated.

Input CC(C)C[C@H](NC(=O)CNC(=O)[C@@H](N)CCCNC(=N)N)C(=O)N[C@@H](CCCCN)C(=O)N[C@@H](CC(C)C)C(=O)N[C@@H](C)C(=O)N[C@H](C(=O)N[C@@H](C)C(=O)N[C@@H](CC(C)C)C(=O)N[C@@H](CO)C(=O)N[C@@H](CC(C)C)C(=O)N[C@@H](CO)C(=O)N[C@@H](CC(N)=O)C(=O)N[C@@H](CCCCN)C(=O)N[C@@H](Cc1ccccc1)C(=O)O)[C@@H](C)O [Peptide 3563.0020] , output reported IC50. 0.0098

Input CC[C@H](C)[C@H](NC(=O)[C@H](CC(C)C)NC(=O)[C@@H](N)Cc1ccccc1)C(=O)N[C@@H](Cc1ccc(O)cc1)C(=O)N[C@H](C(=O)N[C@H](C(=O)N[C@@H](CCC(=O)O)C(=O)N[C@@H](CC(C)C)C(=O)N[C@@H](CC(C)C)C(=O)N[C@@H](CCCCN)C(=O)N[C@@H](CCCCN)C(=O)N[C@@H](CC(C)C)C(=O)N[C@@H](CCC(N)=O)C(=O)N[C@@H](CO)C(=O)N[C@H](C(=O)O)[C@@H](C)O)[C@@H](C)O)[C@@H](C)CC [Peptide 3563.0030] , output reported IC50. 0.032

Input CC[C@H](C)[C@H](NC(=O)[C@H](CC(C)C)NC(=O)[C@H](CC(N)=O)NC(=O)[C@@H](NC(=O)[C@@H](NC(=O)[C@H](Cc1ccccc1)NC(=O)[C@H](Cc1c[nH]cn1)NC(=O)[C@H](CCCCN)NC(=O)[C@@H](NC(=O)[C@@H](N)Cc1c[nH]cn1)C(C)C)C(C)C)[C@@H](C)CC)C(=O)NCC(=O)N[C@@H](CC(=O)O)C(=O)N[C@@H](Cc1ccccc1)C(=O)N[C@@H](CCC(=O)O)C(=O)N[C@H](C(=O)O)C(C)C [Peptide 3563.0014] , output reported IC50. 0.818

Input CSCC[C@H](NC(=O)[C@@H](NC(=O)[C@H](Cc1ccccc1)NC(=O)[C@@H]1CCCN1C(=O)[C@H](C)NC(=O)[C@H](CCSC)NC(=O)[C@@H](NC(=O)[C@H](CO)NC(=O)[C@H](CCCNC(=N)N)NC(=O)[C@H](Cc1ccccc1)NC(=O)[C@@H](NC(=O)[C@H](CC(N)=O)NC(=O)[C@H](CO)NC(=O)[C@H](Cc1ccccc1)NC(=O)[C@@H](N)Cc1c[nH]cn1)C(C)C)C(C)C)[C@@H](C)O)C(=O)O [Peptide 3563.0010] , output reported IC50. 0.094
